Target: UniProt:Q63384
Sequence (Q63384 whole entry): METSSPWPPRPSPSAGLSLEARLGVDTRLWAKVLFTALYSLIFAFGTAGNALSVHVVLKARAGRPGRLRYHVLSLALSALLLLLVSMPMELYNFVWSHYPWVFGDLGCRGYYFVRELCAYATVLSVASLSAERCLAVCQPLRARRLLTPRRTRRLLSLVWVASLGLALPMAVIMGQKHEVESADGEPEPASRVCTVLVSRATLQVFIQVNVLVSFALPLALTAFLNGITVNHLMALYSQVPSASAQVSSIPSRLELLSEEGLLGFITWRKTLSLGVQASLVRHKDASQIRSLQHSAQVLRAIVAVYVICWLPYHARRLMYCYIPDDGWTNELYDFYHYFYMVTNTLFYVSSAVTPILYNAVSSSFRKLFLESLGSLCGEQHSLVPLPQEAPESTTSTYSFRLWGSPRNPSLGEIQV
Assay: Partial agonist activity at rat NTS2 receptor expressed in CHOK1 cells assessed as calcium mobilization by FLIPR assay

[
  {
    "record.smiles": "COc1cccc(OC)c1-c1cc(C(=O)N[C@@H](CCC2CCCCC2)CC(=O)O)nn1-c1ccc(F)cc1",
    "EC50 / µM": 3.41
  }
]
